# protocol_summary: Half life in Sprague-Dawley rat administered intragastrically
# Format: ADME
# recorded_conditions: in vivo, po, route ig

| structure | half-life |
| --- | --- |
| C=CCONC(=O)CCSSCCC(=O)O[C@@H]1CC[C@@]2(C)[C@@H](CC[C@@]3(C)[C@H]2[C@H](O)C[C@H]2/C(=C(\CCC=C(C)C)C(=O)OCc4ccccc4)[C@@H](OC(C)=O)C[C@@]23C)[C@@H]1C | 66.6 min |

====

# protocol_summary: Cytotoxicity against mouse RAW264.7 cells assessed as cell viability at 40 uM measured after 24 hrs by MTT assay relative to control
# Format: toxicity, cell-based
# recorded_conditions: read-out: Activity
Reported values of viability at 24 h, 40 µM for individual entries
property_measured: viability at 24 h, 40 µM (%)

| structure | unit_symbol | observed_result |
| --- | --- | --- |
| CC(=O)O[C@H]1C[C@@]2(C)[C@@H](C[C@@H](O)[C@H]3[C@@]4(C)CC[C@@H](OC(=O)c5ccccc5C(=O)NOc5ccc([N+](=O)[O-])cc5)[C@@H](C)[C@@H]4CC[C@@]32C)/C1=C(\CCC=C(C)C)C(=O)OCc1ccccc1 | % | 1.66 |
| CC(=O)O[C@H]1C[C@@]2(C)[C@@H](C[C@@H](O)[C@H]3[C@@]4(C)CC[C@@H](OC(=O)c5ccccc5C(=O)N5CCN(C)CC5)[C@@H](C)[C@@H]4CC[C@@]32C)/C1=C(\CCC=C(C)C)C(=O)OCc1ccccc1 | % | 108 |

====

# protocol_summary: Cytotoxicity against mouse RAW264.7 cells assessed as cell viability at 40 uM measured after 24 hrs by MTT assay relative to control
# Assay type: toxicity, cell-based
# recorded_conditions: read-out: Activity

| structure | viability at 24 h, 40 µM [%] |
| --- | --- |
| CC(=O)O[C@H]1C[C@@]2(C)[C@@H](C[C@@H](O)[C@H]3[C@@]4(C)CC[C@@H](O)[C@@H](C)[C@@H]4CC[C@@]32C)/C1=C(\CCC=C(C)C)C(=O)O | 91.3 |
| CC(=O)O[C@H]1C[C@@]2(C)[C@@H](C[C@@H](O)[C@H]3[C@@]4(C)CC[C@@H](OC(=O)c5ccccc5C(=O)n5cccn5)[C@@H](C)[C@@H]4CC[C@@]32C)/C1=C(\CCC=C(C)C)C(=O)OCc1ccccc1 | 76.6 |
| CONC(=O)CCSSCCC(=O)O[C@@H]1CC[C@@]2(C)[C@@H](CC[C@@]3(C)[C@H]2[C@H](O)C[C@H]2/C(=C(\CCC=C(C)C)C(=O)OCc4ccccc4)[C@@H](OC(C)=O)C[C@@]23C)[C@@H]1C | 2.32 |
| CC(=O)O[C@H]1C[C@@]2(C)[C@@H](C[C@@H](O)[C@H]3[C@@]4(C)CC[C@@H](OC(=O)CCSSCCC(=O)NOC(C)(C)C)[C@@H](C)[C@@H]4CC[C@@]32C)/C1=C(\CCC=C(C)C)C(=O)OCc1ccccc1 | 76 |

====

# protocol_summary: Cytotoxicity against mouse RAW264.7 cells assessed as cell viability at 40 uM measured after 24 hrs by MTT assay relative to control
# Format: toxicity, cell-based
# recorded_conditions: read-out: Activity
Quick rule for you: viability at 24 h, 40 µM under 90% gets criterion met, anything else gets criterion not met.

| structure | label |
| --- | --- |
| CC(=O)O[C@H]1C[C@@]2(C)[C@@H](C[C@@H](O)[C@H]3[C@@]4(C)CC[C@@H](OC(=O)c5ccccc5C(=O)NOC(C)(C)C)[C@@H](C)[C@@H]4CC[C@@]32C)/C1=C(\CCC=C(C)C)C(=O)OCc1ccccc1 | criterion not met |
| CC(=O)O[C@H]1C[C@@]2(C)[C@@H](C[C@@H](O)[C@H]3[C@@]4(C)CC[C@@H](OC(=O)c5ccccc5C(=O)n5ccnc5)[C@@H](C)[C@@H]4CC[C@@]32C)/C1=C(\CCC=C(C)C)C(=O)OCc1ccccc1 | criterion met |
| CC(=O)O[C@H]1C[C@@]2(C)[C@@H](C[C@@H](O)[C@H]3[C@@]4(C)CC[C@@H](OC(=O)c5ccccc5C(=O)N5CCOCC5)[C@@H](C)[C@@H]4CC[C@@]32C)/C1=C(\CCC=C(C)C)C(=O)OCc1ccccc1 | criterion not met |

Data provenance is ChEMBL document CHEMBL5247586.
